Target: T1, Escherichia coli RecO (Escherichia coli, UniProt P0A7H3 1-242)
T1 construct: RecO of Escherichia coli, synthetic gene in pET28a+ with a TEV site at the 5' end; The His tag was cut off with TEV protease only for the purified protein; source: E. coli Rosetta, purified (Ni-NTA, heparin); also in cell lysate (pull-down); not shown: His tag, N-terminal, cleaved
T1 sequence: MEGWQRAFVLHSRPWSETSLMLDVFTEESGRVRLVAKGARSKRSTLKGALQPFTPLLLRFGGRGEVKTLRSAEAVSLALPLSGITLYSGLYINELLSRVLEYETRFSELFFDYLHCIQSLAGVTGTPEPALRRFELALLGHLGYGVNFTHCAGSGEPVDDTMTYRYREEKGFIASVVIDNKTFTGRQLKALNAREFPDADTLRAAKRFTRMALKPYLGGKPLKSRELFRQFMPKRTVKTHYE
Experiment: fluorescence polarisation; competition fluorescence anisotropy: 0.5 µM RecO, 50 nM F-wtSSB tracer, 0–500 µM unlabeled peptide, 30 min at room temperature, read at 25 °C; 20 mM Tris-HCl pH 8.0, 200 mM NaCl, 1 mM 2-mercaptoethanol, 10% glycerol, 0.01% Triton-X 100
Settings: both partners purified
pIC50: −log10 of the molar value. Where no end group is shown, it is not given here.

binder	pIC50
Ac-DFDDDIPF (also called wild-type SSB-Ct; source: synthetic peptide (solid phase, HPLC purified)) [wtSSB-Ct, octapeptide identical to the SSB C-terminal acidic tip (residues 171-178 of SSB)]	5.33
